Experiment: Phase 1 multiple oral dose (300, 450, 600 mg once daily x 5 days) crossover study: plasma pharmacokinetics
Details: human, plasma, po, 600 mg, Mean Cmax, 600 mg oral once daily; Day 1
Observable: Cmax (µg/mL)
Answer with a number only, understood to be in µg/mL.

// sample CN(C)c1cc(CNCC(C)(C)C)c(O)c2c1C[C@H]1C[C@H]3[C@H](N(C)C)C(O)=C(C(N)=O)C(=O)[C@@]3(O)C(O)=C1C2=O [Omadacycline] , its Cmax was 0.955

* * *

Assay: Phase 1 multiple oral dose (300, 450, 600 mg once daily x 5 days) crossover study: plasma pharmacokinetics
Conditions: human, plasma, po, 300 mg, Mean Cmax, 300 mg oral once daily; Day 5
Observable: Cmax

// Cmax lookup, molecule = CN(C)c1cc(CNCC(C)(C)C)c(O)c2c1C[C@H]1C[C@H]3[C@H](N(C)C)C(O)=C(C(N)=O)C(=O)[C@@]3(O)C(O)=C1C2=O [Omadacycline] , result: 809 ng/mL

* * *

Assay: Phase 1 food-effect crossover study: plasma PK after single 300 mg oral dose
Assay type: in vivo, human
Conditions: human, plasma, po, 300 mg, Treatment C: high-fat nondairy meal 2 h before dosing, read-out: AUC0-inf, Mean (Coefficient of Variation)
Observable: AUC(0-inf) (ng·h/mL)
The figure you give is taken to be in ng·h/mL; do not add the unit.

Notebook: CN(C)c1cc(CNCC(C)(C)C)c(O)c2c1C[C@H]1C[C@H]3[C@H](N(C)C)C(O)=C(C(N)=O)C(=O)[C@@]3(O)C(O)=C1C2=O , AUC(0-inf) read as 6000

* * *

Assay: Phase 1 food-effect crossover study: plasma PK after single 300 mg oral dose
Type: in vivo, human
Conditions: human, plasma, po, 300 mg, Treatment A: fasted overnight, read-out: AUC0-t, Mean (Coefficient of Variation)
Observable: AUC(0-t) (ng·h/mL)
Quick reminder: number only, in ng·h/mL, skip the unit.

AUC(0-t) measured on CN(C)c1cc(CNCC(C)(C)C)c(O)c2c1C[C@H]1C[C@H]3[C@H](N(C)C)C(O)=C(C(N)=O)C(=O)[C@@]3(O)C(O)=C1C2=O = 7200

* * *

Test: Phase 1 food-effect crossover study: plasma PK after single 300 mg oral dose
Type: in vivo, human
Settings: human, plasma, po, 300 mg, Treatment D: high-fat meal incl. dairy 2 h before dosing, read-out: AUC0-inf, Geometric LS Mean
Observable: AUC(0-inf)
Record the result as a number with its unit.

The measured AUC(0-inf) associated with CN(C)c1cc(CNCC(C)(C)C)c(O)c2c1C[C@H]1C[C@H]3[C@H](N(C)C)C(O)=C(C(N)=O)C(=O)[C@@]3(O)C(O)=C1C2=O reads 4000 ng·h/mL

* * *

Assay: Phase 1 food-effect crossover study: plasma PK after single 300 mg oral dose
Assay type: in vivo, human
Conditions: human, plasma, po, 300 mg, Treatment A: fasted overnight, read-out: AUC0-24, Mean (Coefficient of Variation)
Observable: AUC(0-t) (ng·h/mL)
Write down the numeric answer in ng·h/mL and omit the unit.

Lab note: CN(C)c1cc(CNCC(C)(C)C)c(O)c2c1C[C@H]1C[C@H]3[C@H](N(C)C)C(O)=C(C(N)=O)C(=O)[C@@]3(O)C(O)=C1C2=O [Omadacycline] gave AUC(0-t) of 7200

* * *

Assay: Phase 1 food-effect crossover study: plasma PK after single 300 mg oral dose
Type: in vivo, human
Conditions: human, plasma, po, 300 mg, Treatment C: high-fat nondairy meal 2 h before dosing, read-out: Cmax, Mean (Coefficient of Variation)
Observable: Cmax (ng/mL)
Reply numerically in ng/mL, unit not repeated.

# Cmax (compound: CN(C)c1cc(CNCC(C)(C)C)c(O)c2c1C[C@H]1C[C@H]3[C@H](N(C)C)C(O)=C(C(N)=O)C(=O)[C@@]3(O)C(O)=C1C2=O ) is 400

* * *

Experiment: Phase 1 food-effect crossover study: plasma PK after single 300 mg oral dose
Assay type: in vivo, human
Settings: human, plasma, po, 300 mg, Treatment D: high-fat meal incl. dairy 2 h before dosing, read-out: Tmax
Observable: Tmax (h)
Quick reminder: number only, in h, skip the unit.

// Tmax value for CN(C)c1cc(CNCC(C)(C)C)c(O)c2c1C[C@H]1C[C@H]3[C@H](N(C)C)C(O)=C(C(N)=O)C(=O)[C@@]3(O)C(O)=C1C2=O [Omadacycline] : 2.9

* * *

Experiment: Phase 1 food-effect crossover study: plasma PK after single 300 mg oral dose
Assay type: in vivo, human
Conditions: human, plasma, po, 300 mg, Treatment D: high-fat meal incl. dairy 2 h before dosing, read-out: AUC0-inf, Mean (Coefficient of Variation)
Observable: AUC(0-inf) (µg·h/mL)
Report the figure in µg·h/mL without appending any unit label.

AUC(0-inf) for CN(C)c1cc(CNCC(C)(C)C)c(O)c2c1C[C@H]1C[C@H]3[C@H](N(C)C)C(O)=C(C(N)=O)C(=O)[C@@]3(O)C(O)=C1C2=O [Omadacycline] is 4

* * *

Assay: Phase 1 food-effect crossover study: plasma PK after single 300 mg oral dose
Format: in vivo, human
Settings: human, plasma, po, 300 mg, Treatment C: high-fat nondairy meal 2 h before dosing, read-out: AUC0-24, Mean (Coefficient of Variation)
Observable: AUC(0-t) (µg·h/mL)
Number in µg·h/mL, nothing else.

# AUC(0-t) of CN(C)c1cc(CNCC(C)(C)C)c(O)c2c1C[C@H]1C[C@H]3[C@H](N(C)C)C(O)=C(C(N)=O)C(=O)[C@@]3(O)C(O)=C1C2=O [Omadacycline] = 4.2

* * *

Assay: Phase 1 food-effect crossover study: plasma PK after single 300 mg oral dose
Format: in vivo, human
Details: human, plasma, po, 300 mg, Treatment D: high-fat meal incl. dairy 2 h before dosing, read-out: AUC0-t, Mean (Coefficient of Variation)
Observable: AUC(0-t) (ng·h/mL)
Could you give me the number in ng·h/mL? Just the number is fine.

According to the records, this compound CN(C)c1cc(CNCC(C)(C)C)c(O)c2c1C[C@H]1C[C@H]3[C@H](N(C)C)C(O)=C(C(N)=O)C(=O)[C@@]3(O)C(O)=C1C2=O displays AUC(0-t) of 2800

* * *

Test: Prior Phase 1 studies: bioavailability / bioequivalence of oral tablet formulation
Design: species or system human
Details: human, in vivo, phase 3 tablet formulation (tosylate salt), fasting conditions; read-out: absolute bioavailability
Observable: bioavailability (%)
Reply with just the number (in %).

Lookup result for CN(C)c1cc(CNCC(C)(C)C)c(O)c2c1C[C@H]1C[C@H]3[C@H](N(C)C)C(O)=C(C(N)=O)C(=O)[C@@]3(O)C(O)=C1C2=O ; measured bioavailability: 34.5

* * *

Assay: Phase 1 food-effect crossover study: plasma PK after single 300 mg oral dose
Assay type: in vivo, human
Details: human, plasma, po, 300 mg, Treatment A: fasted overnight, read-out: AUC0-inf, Mean (Coefficient of Variation)
Observable: AUC(0-inf) (ng·h/mL)
State just the number; it will be interpreted in ng·h/mL.

Field AUC(0-inf) (entry CN(C)c1cc(CNCC(C)(C)C)c(O)c2c1C[C@H]1C[C@H]3[C@H](N(C)C)C(O)=C(C(N)=O)C(=O)[C@@]3(O)C(O)=C1C2=O ) reads 10200

* * *

Assay: Phase 1 multiple oral dose study: urine pharmacokinetics
Format: in vivo, human
Details: human, in vivo, 600 mg; Day 1 (n = 1); read-out: CLr, Mean (CV) (converted)
Observable: CL renal (mL/min)
Output spec: scalar in mL/min, unitless text.

For record CN(C)c1cc(CNCC(C)(C)C)c(O)c2c1C[C@H]1C[C@H]3[C@H](N(C)C)C(O)=C(C(N)=O)C(=O)[C@@]3(O)C(O)=C1C2=O the listed CL renal is 69.5

* * *

Assay: Phase 1 food-effect crossover study: plasma PK after single 300 mg oral dose
Type: in vivo, human
Details: human, in vivo, across all treatment periods, read-out: mean T1/2
Observable: half-life

half-life for CN(C)c1cc(CNCC(C)(C)C)c(O)c2c1C[C@H]1C[C@H]3[C@H](N(C)C)C(O)=C(C(N)=O)C(=O)[C@@]3(O)C(O)=C1C2=O [Omadacycline] is 13.5 to 13.8 h

* * *

Experiment: Phase 1 multiple oral dose (300, 450, 600 mg once daily x 5 days) crossover study: plasma pharmacokinetics
Conditions: human, plasma, po, 450 mg, Mean AUC0-24, 450 mg oral once daily; Day 5
Observable: AUC(0-t) (ng·h/mL)
A number alone suffices; assume ng·h/mL.

get_value(item= CN(C)c1cc(CNCC(C)(C)C)c(O)c2c1C[C@H]1C[C@H]3[C@H](N(C)C)C(O)=C(C(N)=O)C(=O)[C@@]3(O)C(O)=C1C2=O , readout=AUC(0-t)) returns 13400

* * *

Experiment: Phase 1 multiple oral dose (300, 450, 600 mg once daily x 5 days) crossover study: plasma pharmacokinetics
Details: human, plasma, po, 450 mg, Mean Tmax, 450 mg oral once daily; Day 5
Observable: Tmax (h)
Give just the numeric value; h need not be written.

Tmax for CN(C)c1cc(CNCC(C)(C)C)c(O)c2c1C[C@H]1C[C@H]3[C@H](N(C)C)C(O)=C(C(N)=O)C(=O)[C@@]3(O)C(O)=C1C2=O [Omadacycline] is 2.5
